Listing of entries alongside the reported CB2 receptor affinity [% inhibition @ 10 μM].
assay_target: human CB2 receptor (Homo sapiens)
Construct: expressed in transfected cells; host or cells: human embryonic kidney (HEK) cells, Semliki Forest Virus system, membrane preparation
Sequence (P34972 whole entry): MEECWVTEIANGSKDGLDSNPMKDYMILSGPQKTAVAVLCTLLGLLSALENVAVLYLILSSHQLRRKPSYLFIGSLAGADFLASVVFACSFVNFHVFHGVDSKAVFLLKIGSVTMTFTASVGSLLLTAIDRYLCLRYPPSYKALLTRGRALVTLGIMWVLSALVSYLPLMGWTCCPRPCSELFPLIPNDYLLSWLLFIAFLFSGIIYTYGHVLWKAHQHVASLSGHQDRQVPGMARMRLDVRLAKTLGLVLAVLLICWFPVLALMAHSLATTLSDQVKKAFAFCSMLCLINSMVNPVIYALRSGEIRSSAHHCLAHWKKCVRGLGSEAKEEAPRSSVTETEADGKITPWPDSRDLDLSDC
protocol_text: CB2 receptor affinity ([3H]-CP-55,940 displacement, HEK cell membranes)
Assay type: binding
reported_conditions: displacement of [3H]-CP-55,940 at 10 μM
measurement_type: CB2 receptor affinity [% inhibition @ 10 μM]

>  <smiles_record>
O=C(NCc1ccn(CC2CC2)n1)c1cnc(OCC(F)(F)F)c(C2CCCCC2)c1

>  <observed_value>
14 % inhibition

$$$$
>  <smiles_record>
O=C(Nc1ccnnc1)c1cnc(OCC(F)(F)F)c(C2CCCC2)c1

>  <observed_value>
−2 % inhibition

$$$$
>  <smiles_record>
CCN(C(=O)c1cnc(OCC(F)(F)F)c(C2=CCCCC2)c1)C(C)C

>  <observed_value>
3 % inhibition

$$$$
>  <smiles_record>
O=C(Nc1cccnc1)c1cnc(OCC(F)(F)F)c(C2=CCCC2)c1

>  <observed_value>
3 % inhibition

$$$$
>  <smiles_record>
Cc1noc(CNC(=O)c2cnc(OCC(F)(F)F)c(C3CCCCC3)c2)n1

>  <observed_value>
3 % inhibition

$$$$
>  <smiles_record>
O=C(NCc1ccn(CC2CC2)n1)c1cnc(OCC(F)(F)F)c(C2CCCC2)c1

>  <observed_value>
9 % inhibition

$$$$
>  <smiles_record>
O=C(Nc1cncnc1)c1cnc(OCC(F)(F)F)c(C2CCCCC2)c1

>  <observed_value>
−11 % inhibition

$$$$
>  <smiles_record>
O=C(Nc1cnccn1)c1cnc(OCC(F)(F)F)c(C2CCCCC2)c1

>  <observed_value>
11 % inhibition

$$$$
>  <smiles_record>
O=C(Nc1cnccn1)c1cnc(OCC(F)(F)F)c(C2CCCC2)c1

>  <observed_value>
2 % inhibition

$$$$

* * *

Overview of reported CB1 receptor affinity [% inhibition @ 10 μM] across a group of compounds:
assay_target: human CB1 receptor (Homo sapiens, UniProt P21554)
Construct: expressed in transfected cells; host or cells: human embryonic kidney (HEK) cells, Semliki Forest Virus system, membrane preparation
Sequence (P21554 whole entry): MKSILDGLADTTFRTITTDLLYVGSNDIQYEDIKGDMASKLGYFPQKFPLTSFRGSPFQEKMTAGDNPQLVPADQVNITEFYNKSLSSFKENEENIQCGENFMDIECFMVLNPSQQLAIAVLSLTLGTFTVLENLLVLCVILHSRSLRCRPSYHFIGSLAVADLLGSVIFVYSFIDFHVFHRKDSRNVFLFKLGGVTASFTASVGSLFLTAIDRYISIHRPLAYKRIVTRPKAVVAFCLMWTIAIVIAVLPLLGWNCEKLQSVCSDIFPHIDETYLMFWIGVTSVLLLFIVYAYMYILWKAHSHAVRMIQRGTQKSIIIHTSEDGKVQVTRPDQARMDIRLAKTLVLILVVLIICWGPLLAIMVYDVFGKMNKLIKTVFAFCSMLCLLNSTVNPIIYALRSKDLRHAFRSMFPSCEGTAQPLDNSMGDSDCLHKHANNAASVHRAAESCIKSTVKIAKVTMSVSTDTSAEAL
protocol_text: CB1 receptor affinity ([3H]-CP-55,940 displacement, HEK cell membranes)
Assay type: binding
reported_conditions: displacement of [3H]-CP-55,940 at 10 μM
measurement_type: CB1 receptor affinity [% inhibition @ 10 μM] (% inhibition)

>  <smiles_record>
O=C(Nc1cncnc1)c1cnc(OCC(F)(F)F)c(C2CCCC2)c1

>  <observed_value>
12

$$$$
>  <smiles_record>
O=C(Nc1cccnc1)c1cnc(OCC(F)(F)F)c(C2=CCCCC2)c1

>  <observed_value>
33

$$$$
>  <smiles_record>
N#Cc1ccc(NC(=O)c2cnc(OCC(F)(F)F)c(C3CCCC3)c2)cc1

>  <observed_value>
27

$$$$
>  <smiles_record>
O=C(Nc1ccnnc1)c1cnc(OCC(F)(F)F)c(C2CCCC2)c1

>  <observed_value>
24

$$$$
>  <smiles_record>
O=C(Nc1cccnc1)c1cnc(OCC(F)(F)F)c(C2CCCC2)c1

>  <observed_value>
49

$$$$
>  <smiles_record>
O=C(Nc1ccccn1)c1cnc(OCC(F)(F)F)c(C2CCCC2)c1

>  <observed_value>
9

$$$$
>  <smiles_record>
O=C(Nc1cnccn1)c1cnc(OCC(F)(F)F)c(C2CCCC2)c1

>  <observed_value>
12

$$$$
>  <smiles_record>
O=C(NCc1csc(C2CC2)n1)c1cnc(OCC(F)(F)F)c(C2CCCCC2)c1

>  <observed_value>
25

$$$$
>  <smiles_record>
O=C(Nc1cncnc1)c1cnc(OCC(F)(F)F)c(C2CCCCC2)c1

>  <observed_value>
20

$$$$

* * *

# Lookup of reported CB1 receptor affinity [% inhibition @ 10 μM] keyed by entry
assay_target: human CB1 receptor (Homo sapiens, UniProt P21554)
Construct: expressed in transfected cells; host or cells: human embryonic kidney (HEK) cells, Semliki Forest Virus system, membrane preparation
protocol_text: CB1 receptor affinity ([3H]-CP-55,940 displacement, HEK cell membranes)
Assay type: binding
reported_conditions: displacement of [3H]-CP-55,940 at 10 μM
measurement_type: CB1 receptor affinity [% inhibition @ 10 μM] (% inhibition)

>  <smiles_record>
CCN(C(=O)c1cnc(OCC(F)(F)F)c(C2=CCCCC2)c1)C(C)C

>  <unit_tag>
% inhibition

>  <observed_value>
37

$$$$
>  <smiles_record>
O=C(Nc1ccnnc1)c1cnc(OCC(F)(F)F)c(C2CCCCC2)c1

>  <unit_tag>
% inhibition

>  <observed_value>
36

$$$$
>  <smiles_record>
O=C(Nc1cccnc1)c1cnc(OCC(F)(F)F)c(C2CCCCC2)c1

>  <unit_tag>
% inhibition

>  <observed_value>
17

$$$$
>  <smiles_record>
O=C(Nc1ccncn1)c1cnc(OCC(F)(F)F)c(C2CCCCC2)c1

>  <unit_tag>
% inhibition

>  <observed_value>
38

$$$$
>  <smiles_record>
COc1cc(CNC(=O)c2cnc(OCC(F)(F)F)c(C3CCCC3)c2)on1

>  <unit_tag>
% inhibition

>  <observed_value>
29

$$$$

* * *

assay_target: human CB2 receptor (Homo sapiens)
Construct: expressed in transfected cells; host or cells: human embryonic kidney (HEK) cells, Semliki Forest Virus system, membrane preparation
protocol_text: CB2 receptor affinity ([3H]-CP-55,940 displacement, HEK cell membranes)
Format: binding
reported_conditions: displacement of [3H]-CP-55,940 at 10 μM
measurement_type: CB2 receptor affinity [% inhibition @ 10 μM] (% inhibition)

>  <smiles_record>
O=C(NCc1csc(C2CC2)n1)c1cnc(OCC(F)(F)F)c(C2CCCC2)c1

>  <unit_tag>
% inhibition

>  <observed_value>
14

$$$$
>  <smiles_record>
O=C(Nc1cccnc1)c1cnc(OCC(F)(F)F)c(C2CCCCC2)c1

>  <unit_tag>
% inhibition

>  <observed_value>
2

$$$$
>  <smiles_record>
O=C(Nc1ccnnc1)c1cnc(OCC(F)(F)F)c(C2CCCCC2)c1

>  <unit_tag>
% inhibition

>  <observed_value>
6

$$$$
>  <smiles_record>
COc1cc(CNC(=O)c2cnc(OCC(F)(F)F)c(C3CCCC3)c2)on1

>  <unit_tag>
% inhibition

>  <observed_value>
12

$$$$
>  <smiles_record>
O=C(NCc1nc(C(F)(F)F)no1)c1cnc(OCC(F)(F)F)c(C2CCCCC2)c1

>  <unit_tag>
% inhibition

>  <observed_value>
2

$$$$
>  <smiles_record>
O=C(Nc1ccncn1)c1cnc(OCC(F)(F)F)c(C2CCCC2)c1

>  <unit_tag>
% inhibition

>  <observed_value>
−3

$$$$
>  <smiles_record>
O=C(Nc1ccccn1)c1cnc(OCC(F)(F)F)c(C2CCCC2)c1

>  <unit_tag>
% inhibition

>  <observed_value>
−9

$$$$
>  <smiles_record>
COc1cc(CNC(=O)c2cnc(OCC(F)(F)F)c(C3CCCCC3)c2)on1

>  <unit_tag>
% inhibition

>  <observed_value>
5

$$$$
>  <smiles_record>
N#Cc1ccc(NC(=O)c2cnc(OCC(F)(F)F)c(C3CCCCC3)c2)cc1

>  <unit_tag>
% inhibition

>  <observed_value>
−17

$$$$
>  <smiles_record>
N#Cc1ccc(NC(=O)c2cnc(OCC(F)(F)F)c(C3CCCC3)c2)cc1

>  <unit_tag>
% inhibition

>  <observed_value>
0

$$$$

* * *

assay_target: human CB1 receptor (Homo sapiens, UniProt P21554)
Construct: expressed in transfected cells; host or cells: human embryonic kidney (HEK) cells, Semliki Forest Virus system, membrane preparation
protocol_text: CB1 receptor affinity ([3H]-CP-55,940 displacement, HEK cell membranes)
Type: binding
reported_conditions: displacement of [3H]-CP-55,940 at 10 μM
measurement_type: CB1 receptor affinity [% inhibition @ 10 μM] (% inhibition)

>  <compound>
O=C(NCc1ccn(CC2CC2)n1)c1cnc(OCC(F)(F)F)c(C2CCCC2)c1 [Example 17]

>  <observed_value>
25

$$$$
>  <compound>
O=C(NCc1nc(C(F)(F)F)no1)c1cnc(OCC(F)(F)F)c(C2=CCCCC2)c1 [Example 3]

>  <observed_value>
42

$$$$
>  <compound>
O=C(NCc1nc(C(F)(F)F)no1)c1cnc(OCC(F)(F)F)c(C2=CCOCC2)c1 [Example 5]

>  <observed_value>
15

$$$$
>  <compound>
O=C(NCc1nc(C(F)(F)F)no1)c1cnc(OCC(F)(F)F)c(C2CCCC2)c1 [Example 11]

>  <observed_value>
29

$$$$
>  <compound>
O=C(Nc1ccncn1)c1cnc(OCC(F)(F)F)c(C2CCCC2)c1 [Example 23]

>  <observed_value>
31

$$$$
>  <compound>
COc1cc(CNC(=O)c2cnc(OCC(F)(F)F)c(C3CCCCC3)c2)on1 [Example 13]

>  <observed_value>
45

$$$$
>  <compound>
O=C(NCc1nc(C(F)(F)F)no1)c1cnc(OCC(F)(F)F)c(C2CCCCC2)c1 [Example 4]

>  <observed_value>
31

$$$$
>  <compound>
O=C(Nc1cccnn1)c1cnc(OCC(F)(F)F)c(C2CCCC2)c1 [Example 9]

>  <observed_value>
7

$$$$
>  <compound>
O=C(Nc1cccnc1)c1cnc(OCC(F)(F)F)c(C2=CCCC2)c1 [Example 7]

>  <observed_value>
11

$$$$
